From: patent US7816522B2

# MEASURED TARGET: human clotting factor VIIa (Homo sapiens, UniProt P08709)
# Sequence (P08709 213-466 limits assumed): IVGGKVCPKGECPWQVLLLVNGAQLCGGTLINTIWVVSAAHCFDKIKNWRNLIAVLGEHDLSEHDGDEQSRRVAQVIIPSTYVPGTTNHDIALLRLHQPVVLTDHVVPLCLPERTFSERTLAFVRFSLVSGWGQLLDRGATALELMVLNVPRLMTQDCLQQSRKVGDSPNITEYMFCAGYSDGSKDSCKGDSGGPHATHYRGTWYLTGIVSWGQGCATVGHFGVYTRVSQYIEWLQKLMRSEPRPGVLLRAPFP
# Sequence (P08709 61-212 limits assumed): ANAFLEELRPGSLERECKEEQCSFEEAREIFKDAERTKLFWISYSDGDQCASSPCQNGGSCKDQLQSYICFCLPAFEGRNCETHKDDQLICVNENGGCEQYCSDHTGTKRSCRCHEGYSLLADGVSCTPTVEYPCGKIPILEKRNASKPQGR
# Sequence (P13726 33-295 partner): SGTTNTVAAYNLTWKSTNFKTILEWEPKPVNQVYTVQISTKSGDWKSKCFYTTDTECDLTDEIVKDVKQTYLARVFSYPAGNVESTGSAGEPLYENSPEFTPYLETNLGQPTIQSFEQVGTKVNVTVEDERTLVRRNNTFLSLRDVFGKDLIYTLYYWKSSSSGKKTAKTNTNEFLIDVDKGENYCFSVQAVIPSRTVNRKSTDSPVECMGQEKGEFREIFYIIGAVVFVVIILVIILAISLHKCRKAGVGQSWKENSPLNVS
pIC50: −log10 of the molar value.
Assign class by pIC50: not lower than 8 means fulfilled; lower than 8 means not fulfilled.

Take a look at these entries with their results.
compound="COc1cc(C(Nc2ccc(C(=N)N)cc2)c2nn(-c3[nH]ncc3C(=O)O)c(=O)[nH]2)c(F)c2c1OCCC2 (stereo not shown) [Example 189]" assigned_class="not fulfilled"
compound="CCOC(=O)c1cn[nH]c1-n1nc(C(Nc2ccc(C(=N)N)cc2)c2cc(OC)c3c(c2F)OCCCO3)[nH]c1=O (stereo not shown) [Example 192, acetate]" assigned_class=fulfilled
compound="CCc1cc(OCCF)cc(C(Nc2ccc(C(=N)N)cc2)c2nn(-c3ncccn3)c(=O)[nH]2)c1 (racemic) [Example 74, acetate]" assigned_class=fulfilled
compound="COc1cc(C(Nc2ccc(C(=N)N)cc2)c2nn(-c3cccnn3)c(=O)[nH]2)cc2c1OCCCO2 (stereo not shown) [Example 147, acetate]" assigned_class=fulfilled
compound="COc1cc(O[C@@H](C)CO)c(F)c(C(Nc2ccc(C(=N)N)cc2)c2nn(-c3ncccn3)c(=O)[nH]2)c1 (mixture of isomers) [Example 217, acetate]" assigned_class=fulfilled

Prompt line: // inclusive: pIC50 at least 8? input: CCc1cc(OCC(C)(C)CN(C)C)c(F)c(C(Nc2ccc(C(=N)N)cc2)c2nn(-c3ccccc3C(=O)O)c(=O)[nH]2)c1 (stereo not shown) [Example 142, bistrifluoroacetate]
Response line: fulfilled

Prompt line: // inclusive: pIC50 at least 8? input: CCOc1cc(C(Nc2ccc(C(=N)N)cc2)c2nn(-c3ccsc3C(=O)O)c(=O)[nH]2)cnc1OC (racemic) [Example 235]
Response line: fulfilled

Prompt line: // inclusive: pIC50 at least 8? input: COc1cc(C(Nc2ccc(C(=N)N)cc2)c2nn(-c3ncccn3)c(=O)[nH]2)cc(CO)c1OC (stereo not shown) [Example 23, acetate]
Response line: not fulfilled

Prompt line: // inclusive: pIC50 at least 8? input: CCc1cc(OC(C)CN(C)C)c(F)c(C(Nc2ccc(C(=N)N)cc2)c2nn(-c3ccccn3)c(=O)[nH]2)c1 (stereo not shown) [Example 141, bistrifluoroacetate]
Response line: fulfilled

Prompt line: // inclusive: pIC50 at least 8? input: Cc1cc(OC2CCOCC2)cc(C(Nc2ccc(C(=N)N)cc2)c2nn(-c3ncccn3)c(=O)[nH]2)c1 (racemic) [Example 60, acetate]
Response line: fulfilled

----------
Assign IC50 to each entry below.
# MEASURED TARGET: human clotting factor VIIa (Homo sapiens)
Give bare numbers, in nM.

Known IC50 results, listed for orientation:
compound="COc1cc(C(Nc2ccc(C(=N)N)cc2)c2nn(-c3cccnn3)c(=O)[nH]2)cc2c1OCOC2 (racemic) [Example 150, acetate]" recorded_result=9
compound="C=Cc1cc(O[C@H]2CCOC2)cc(C(Nc2ccc(C(=N)N)cc2)c2nn(-c3ncccn3)c(=O)[nH]2)c1 (mixture of isomers) [Example 45(1), acetate]" recorded_result=1.3
compound="COc1cc(OCF)c(F)c(C(Nc2ccc(C(=N)N)cc2)c2nn(-c3ncccn3)c(=O)[nH]2)c1 (racemic) [Example 103, acetate]" recorded_result=8.9
compound="COc1cc(C(Nc2ccc(C(=N)N)cc2)c2nn(-c3ccccn3)c(=O)[nH]2)cc2c1OCOC2 (racemic) [Example 213, acetate]" recorded_result=3.3
compound="COc1cc(C(Nc2ccc(C(=N)N)cc2)c2nn(-c3ncccn3)c(=O)[nH]2)c(F)c2c1OCOC2 (racemic) [Example 32, acetate]" recorded_result=11.6

Next:
Prompt line: Identify measured IC50 associated with COc1cc(C(Nc2ccc(C(=N)N)cc2)c2nn(-c3cccnn3)c(=O)[nH]2)cc(CC#N)c1F (racemic) [Example 146, acetate]
Response line: 8.1
